Source listed as ChEMBL document CHEMBL4364258.

# Measured On: Cholinesterase (Homo sapiens)
# Protocol Details: Inhibition of human recombinant BuChE at 25 uM using butyrylthiocholine iodide as substrate preincubated for 20 mins followed by substrate addition by Ellman's spectrophotometric method relative to control
Assay Metric: inhibition (%)
Please state the figure in %; there is no need to write the unit.

Below, 2 molecules whose answers are already recorded.
• COc1ccc(-c2oc3ccccc3c2C(=O)c2ccc(NCc3ccccn3)cc2)cc1 = 15.3
• COc1ccc(-c2oc3ccccc3c2C(=O)c2ccc(NCC3CC3)cc2)cc1 = 22.4

Looking for the measured inhibition of `COc1ccc(-c2oc3ccccc3c2C(=O)c2ccc(OCCCCN(C)Cc3ccccc3)cc2)cc1` , can you help?
35.2

----------
# Measured On: Cholinesterase (Homo sapiens, UniProt P06276)
# Sequence (P06276 whole entry): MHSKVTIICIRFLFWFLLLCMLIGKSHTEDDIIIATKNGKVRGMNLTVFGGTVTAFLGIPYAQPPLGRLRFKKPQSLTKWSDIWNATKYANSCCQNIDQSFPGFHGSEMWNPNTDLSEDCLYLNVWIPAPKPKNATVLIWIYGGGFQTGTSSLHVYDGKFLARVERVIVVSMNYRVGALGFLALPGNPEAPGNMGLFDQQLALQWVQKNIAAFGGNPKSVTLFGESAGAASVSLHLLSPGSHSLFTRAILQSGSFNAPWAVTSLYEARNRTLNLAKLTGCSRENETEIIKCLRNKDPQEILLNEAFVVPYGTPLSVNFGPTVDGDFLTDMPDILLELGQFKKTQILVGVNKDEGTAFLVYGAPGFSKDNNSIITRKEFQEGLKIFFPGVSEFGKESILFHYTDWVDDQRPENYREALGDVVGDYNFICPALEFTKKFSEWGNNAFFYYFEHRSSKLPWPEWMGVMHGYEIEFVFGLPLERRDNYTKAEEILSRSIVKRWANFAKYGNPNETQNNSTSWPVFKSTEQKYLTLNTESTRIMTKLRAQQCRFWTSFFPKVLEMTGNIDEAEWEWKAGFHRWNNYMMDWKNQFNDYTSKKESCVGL
# Protocol Details: Inhibition of human recombinant BuChE at 25 uM using butyrylthiocholine iodide as substrate preincubated for 20 mins followed by substrate addition by Ellman's spectrophotometric method relative to control
Assay Metric: inhibition (%)
Please reply with the bare figure in % and do not write the unit itself.

* COc1ccc(-c2oc3ccccc3c2C(=O)c2ccc(N(Cc3ccccc3)Cc3ccccc3)cc2)cc1 | 30.9
* COc1ccc(-c2oc3ccccc3c2C(=O)c2ccc(OCCN(C)Cc3ccccc3)cc2)cc1 | 65
* CCCCCCCNc1ccc(C(=O)c2c(-c3ccc(OC)cc3)oc3ccccc23)cc1 | 30.2

Attention now turns to another entry.
Which inhibition value belongs to `CCCCCNc1ccc(C(=O)c2c(-c3ccc(OC)cc3)oc3ccccc23)cc1` ?
72.2

----------
Listing: IC50 of selected compounds
# Measured On: Cannabinoid receptor 1 (Homo sapiens)
# Sequence (P21554 whole entry): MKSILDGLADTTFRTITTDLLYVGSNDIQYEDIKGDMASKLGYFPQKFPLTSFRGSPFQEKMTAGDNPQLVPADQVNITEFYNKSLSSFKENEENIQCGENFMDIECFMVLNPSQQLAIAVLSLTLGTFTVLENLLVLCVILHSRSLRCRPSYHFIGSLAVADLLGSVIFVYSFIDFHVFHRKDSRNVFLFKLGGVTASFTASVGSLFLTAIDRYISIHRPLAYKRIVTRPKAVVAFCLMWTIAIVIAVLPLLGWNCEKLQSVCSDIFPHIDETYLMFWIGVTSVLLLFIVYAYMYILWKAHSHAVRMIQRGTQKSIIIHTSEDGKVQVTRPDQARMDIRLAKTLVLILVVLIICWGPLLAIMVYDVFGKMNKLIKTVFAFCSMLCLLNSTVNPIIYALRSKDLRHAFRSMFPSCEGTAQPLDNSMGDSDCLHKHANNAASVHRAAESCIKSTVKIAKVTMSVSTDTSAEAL
# Protocol Details: Displacement of 3[H]-CP55940 from human recombinant CB1 receptor expressed in HEK293 cell membranes measured after 90 mins
Provide the reading as a plain figure in µM.

* COc1ccc(-c2oc3ccccc3c2C(=O)c2ccc(NCc3ccc(F)cc3)cc2)cc1 | 3.21
* COc1ccc(-c2oc3ccccc3c2C(=O)c2ccc(NCc3ccc(C#N)cc3)cc2)cc1 | 9.12
* COc1ccc(-c2oc3ccccc3c2C(=O)c2ccc(OCCCCCN(C)Cc3ccccc3)cc2)cc1 | 7.2

Return IC50 measured with Cannabinoid receptor 1 (Homo sapiens) given this compound: `COc1ccc(-c2oc3ccccc3c2C(=O)c2ccc(OCCCCN(C)Cc3ccccc3)cc2)cc1`
3.52

Notebook entry, Cannabinoid receptor 1 (Homo sapiens) assay: IC50 of `CCCCCCCNc1ccc(C(=O)c2c(-c3ccc(OC)cc3)oc3ccccc23)cc1` = ?
5.84

----------
Below: a set of entries, each annotated with reported pIC50.
# Measured On: Cannabinoid receptor 2 (Homo sapiens)
# Sequence (P34972 whole entry): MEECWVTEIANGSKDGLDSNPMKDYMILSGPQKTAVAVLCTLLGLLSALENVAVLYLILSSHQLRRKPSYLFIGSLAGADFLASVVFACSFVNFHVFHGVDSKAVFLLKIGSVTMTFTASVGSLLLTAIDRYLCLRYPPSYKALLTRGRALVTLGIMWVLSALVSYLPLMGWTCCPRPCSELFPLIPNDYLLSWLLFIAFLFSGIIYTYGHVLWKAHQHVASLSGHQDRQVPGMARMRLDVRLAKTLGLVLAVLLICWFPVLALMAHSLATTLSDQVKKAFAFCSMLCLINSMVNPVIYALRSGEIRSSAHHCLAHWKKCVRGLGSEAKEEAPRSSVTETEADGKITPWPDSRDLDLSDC
# Protocol Details: Displacement of 3[H]-CP55940 from human recombinant CB2 receptor expressed in HEK293 cell membranes measured after 90 mins
Reminder that pIC50 is minus the log10 of a molar concentration.

• COc1ccc(-c2oc3ccccc3c2C(=O)c2ccc(NCc3ccc(F)cc3)cc2)cc1 = 7.15
• COc1ccc(-c2oc3ccccc3c2C(=O)c2ccc(NCc3cc(F)cc(F)c3)cc2)cc1 = 5.94
• COc1ccc(-c2oc3ccccc3c2C(=O)c2ccc(NCc3ccc(C#N)cc3)cc2)cc1 = 7.05
• COc1ccc(-c2oc3ccccc3c2C(=O)c2ccc(N(C)Cc3ccc(F)cc3)cc2)cc1 = 8.00
• CCCCCNc1ccc(C(=O)c2c(-c3ccc(OC)cc3)oc3ccccc23)cc1 = 6.59
• COc1ccc(CNc2ccc(C(=O)c3c(-c4ccc(OC)cc4)oc4ccccc34)cc2)cc1 = 5.41

Lab note: next compound to report on.
Using the record for `CCCCCCCNc1ccc(C(=O)c2c(-c3ccc(OC)cc3)oc3ccccc23)cc1` , report its pIC50.
5.81

----------
# Measured On: Cannabinoid receptor 2 (Homo sapiens)
# Protocol Details: Displacement of 3[H]-CP55940 from human recombinant CB2 receptor expressed in HEK293 cell membranes measured after 90 mins by Cheng-Prusoff equation analysis
Label key: Yes means Ki under 0.3 µM; No means Ki of 0.3 µM or more.

Worked examples, 3 compounds total:
* COc1ccc(-c2oc3ccccc3c2C(=O)c2ccc(NCc3ccccc3)cc2)cc1 | Yes
* COc1ccc(-c2oc3ccccc3c2C(=O)c2ccc(N(C)Cc3ccc(F)cc3)cc2)cc1 | Yes
* CCCCCCCNc1ccc(C(=O)c2c(-c3ccc(OC)cc3)oc3ccccc23)cc1 | No

Consider the record given below.
Input `COc1ccc(-c2oc3ccccc3c2C(=O)c2ccc(NCC3CC3)cc2)cc1` ; condition: Ki strictly below 0.3 µM. Does it hold?
Yes

----------
Reported IC50 values follow for various compounds
# Measured On: Cannabinoid receptor 1 (Homo sapiens)
# Protocol Details: Displacement of 3[H]-CP55940 from human recombinant CB1 receptor expressed in HEK293 cell membranes measured after 90 mins
Numbers only; they are read as µM.

* COc1ccc(-c2oc3ccccc3c2C(=O)c2ccc(N(C)Cc3ccc(F)cc3)cc2)cc1 | 0.08

Then there is this compound:
Lookup: IC50 / Cannabinoid receptor 1 (Homo sapiens) / `COc1ccc(-c2oc3ccccc3c2C(=O)c2ccc(OCCN(C)Cc3ccccc3)cc2)cc1`
1.52

----------
# Measured On: Cannabinoid receptor 2 (Homo sapiens)
# Protocol Details: Displacement of 3[H]-CP55940 from human recombinant CB2 receptor expressed in HEK293 cell membranes measured after 90 mins by Cheng-Prusoff equation analysis
Here, each record is paired with measured pKi data.
Kindly note that pKi refers to -log10 of the concentration in mol/L and answer with the value alone.

• COc1ccc(-c2oc3ccccc3c2C(=O)c2ccc(N(Cc3ccc(F)cc3)Cc3ccc(F)cc3)cc2)cc1 = 6.37
• COc1ccc(-c2oc3ccccc3c2C(=O)c2ccc(OCCCN(C)Cc3ccccc3)cc2)cc1 = 6.92
• COc1ccc(-c2oc3ccccc3c2C(=O)c2ccc(NCc3ccc(C#N)cc3)cc2)cc1 = 7.70
• COc1ccc(-c2oc3ccccc3c2C(=O)c2ccc(N(Cc3ccccc3)Cc3ccccc3)cc2)cc1 = 6.04
• COc1ccc(-c2oc3ccccc3c2C(=O)c2ccc(NCc3ccccn3)cc2)cc1 = 5.87

Field: pKi (Cannabinoid receptor 2 (Homo sapiens)). Entry: `COc1ccc(-c2oc3ccccc3c2C(=O)c2ccc(OCCN(C)Cc3ccccc3)cc2)cc1`
6.16

Observed pKi on Cannabinoid receptor 2 (Homo sapiens) for `CCCCCNc1ccc(C(=O)c2c(-c3ccc(OC)cc3)oc3ccccc23)cc1` , please.
7.15

Query pKi on Cannabinoid receptor 2 (Homo sapiens) for `COc1ccc(-c2oc3ccccc3c2C(=O)c2ccc(NCc3ccc(F)cc3)cc2)cc1`
7.70

Short answer please: pKi, Cannabinoid receptor 2 (Homo sapiens), entry `COc1ccc(CNc2ccc(C(=O)c3c(-c4ccc(OC)cc4)oc4ccccc34)cc2)cc1`
5.99

----------
# Measured On: Cannabinoid receptor 2 (Homo sapiens)
# Protocol Details: Displacement of 3[H]-CP55940 from human recombinant CB2 receptor expressed in HEK293 cell membranes measured after 90 mins
Assay Metric: pIC50
Please keep in mind that pIC50 is minus log10 of the molar concentration; only the number is needed.

// below: answered compounds
- COc1ccc(-c2oc3ccccc3c2C(=O)c2ccc(NCc3ccccc3)cc2)cc1: 6.18
- COc1ccc(-c2oc3ccccc3c2C(=O)c2ccc(NCc3ccccn3)cc2)cc1: 5.29
- COc1ccc(-c2oc3ccccc3c2C(=O)c2ccc(N(Cc3ccccc3)Cc3ccccc3)cc2)cc1: 5.44
- COc1ccc(-c2oc3ccccc3c2C(=O)c2ccc(NCC3CC3)cc2)cc1: 6.39
- COc1ccc(-c2oc3ccccc3c2C(=O)c2ccc(N(Cc3ccc(F)cc3)Cc3ccc(F)cc3)cc2)cc1: 5.78
- COc1ccc(-c2oc3ccccc3c2C(=O)c2ccc(OCCCN(C)Cc3ccccc3)cc2)cc1: 6.36

Now examine the next entry.
Would you mind telling me what pIC50 value was observed for `COc1ccc(-c2oc3ccccc3c2C(=O)c2ccc(OCCN(C)Cc3ccccc3)cc2)cc1` ?
5.58

----------
// reported log10 IC50 per item
# Measured On: Cholinesterase (Homo sapiens, UniProt P06276)
# Protocol Details: Inhibition of human recombinant BuChE using butyrylthiocholine iodide as substrate preincubated for 20 mins followed by substrate addition by Ellman's spectrophotometric method
Hey, these are logged values: log10 of IC50, µM being the unit before logging.

- COc1ccc(-c2oc3ccccc3c2C(=O)c2ccc(OCCCN(C)Cc3ccccc3)cc2)cc1: 2.13
- COc1ccc(-c2oc3ccccc3c2C(=O)c2ccc(OCCCCCN(C)Cc3ccccc3)cc2)cc1: 0.04
- COc1ccc(-c2oc3ccccc3c2C(=O)c2ccc(OCCCCN(C)Cc3ccccc3)cc2)cc1: 2.34
- COc1ccc(-c2oc3ccccc3c2C(=O)c2ccc(N(Cc3ccc(F)cc3)Cc3ccc(F)cc3)cc2)cc1: 0.78
- COc1ccc(-c2oc3ccccc3c2C(=O)c2ccc(OCCN(C)Cc3ccccc3)cc2)cc1: 1.15
- COc1ccc(-c2oc3ccccc3c2C(=O)c2ccc(N(Cc3cc(F)cc(F)c3)Cc3cc(F)cc(F)c3)cc2)cc1: 1.07

Note: attention shifts to another entry.
Bench note: what log10 IC50 did `CCCCCNc1ccc(C(=O)c2c(-c3ccc(OC)cc3)oc3ccccc23)cc1` show?
0.59
